Data provenance: patent US6093732A

Assay system: HCMV polymerase (Human cytomegalovirus, UniProt P08546)
Construct: made in house; host or cells: recombinant baculovirus-infected SF-9 cells
Sequence (P08546 whole entry): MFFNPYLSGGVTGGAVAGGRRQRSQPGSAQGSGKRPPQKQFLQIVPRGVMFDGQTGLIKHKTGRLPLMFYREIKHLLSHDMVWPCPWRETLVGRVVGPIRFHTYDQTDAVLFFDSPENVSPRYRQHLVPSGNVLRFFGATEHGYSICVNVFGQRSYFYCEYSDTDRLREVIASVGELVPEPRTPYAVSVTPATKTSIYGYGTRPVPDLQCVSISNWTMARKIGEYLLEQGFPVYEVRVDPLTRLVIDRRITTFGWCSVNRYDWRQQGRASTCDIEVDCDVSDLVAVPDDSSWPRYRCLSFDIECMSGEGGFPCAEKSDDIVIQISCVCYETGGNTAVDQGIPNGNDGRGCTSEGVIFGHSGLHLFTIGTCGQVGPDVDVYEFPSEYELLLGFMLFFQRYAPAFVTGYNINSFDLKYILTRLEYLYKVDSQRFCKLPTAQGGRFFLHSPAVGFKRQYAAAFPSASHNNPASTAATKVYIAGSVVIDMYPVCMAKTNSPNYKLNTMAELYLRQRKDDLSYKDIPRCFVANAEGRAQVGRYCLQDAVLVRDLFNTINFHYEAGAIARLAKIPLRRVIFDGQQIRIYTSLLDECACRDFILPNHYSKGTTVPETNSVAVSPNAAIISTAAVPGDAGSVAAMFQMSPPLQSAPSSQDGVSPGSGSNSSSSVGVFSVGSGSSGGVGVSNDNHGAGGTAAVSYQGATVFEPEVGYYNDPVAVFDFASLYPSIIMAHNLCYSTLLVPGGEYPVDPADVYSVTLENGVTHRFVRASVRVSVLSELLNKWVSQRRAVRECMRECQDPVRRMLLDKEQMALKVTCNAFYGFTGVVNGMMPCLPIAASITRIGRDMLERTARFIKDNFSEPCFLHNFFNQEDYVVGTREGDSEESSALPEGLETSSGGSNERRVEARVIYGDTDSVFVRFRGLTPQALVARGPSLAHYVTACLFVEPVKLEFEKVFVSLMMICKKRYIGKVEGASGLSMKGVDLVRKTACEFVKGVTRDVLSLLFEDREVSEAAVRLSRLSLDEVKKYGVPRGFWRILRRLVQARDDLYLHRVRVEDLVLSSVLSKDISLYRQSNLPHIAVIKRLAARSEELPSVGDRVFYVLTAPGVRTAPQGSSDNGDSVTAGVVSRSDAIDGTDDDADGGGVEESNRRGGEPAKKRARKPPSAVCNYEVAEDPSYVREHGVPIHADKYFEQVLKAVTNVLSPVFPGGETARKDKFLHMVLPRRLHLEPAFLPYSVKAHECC
Assay method text: HCMV polymerase scintillation proximity assay (SPA), modified version
Assay type: biochemical
Stated conditions: CMV polymerase; Table 1; modified assay with 4.5 mM DTT, compounds in 100% DMSO; read-out: Antiviral Selective Polymerase IC50 Values, CMV
Where a name gives a salt, the structure may show the parent alone.
We'd kindly ask you to apply these IC50 classes: low class = under 4 µM, middle class = from 4 µM up to 20 µM, high class = 20 µM and over

Looking at `O=C(NCc1ccc(Cl)cc1)c1cnc2cc(-n3cccc3)ccc2c1O` , which class would you pick? high class

Sort into band: `COc1c(F)cc2c(O)c(C(=O)NCc3ccc(Cl)cc3)cnc2c1OC` low class

For this compound, which bin applies? `CN(C)c1ccc2ncc(C(=O)NCc3ccc(Cl)cc3)c(O)c2c1` middle class

Pick a category. Item: `O=C(NCc1ccc(Cl)cc1)c1cnc2c([N+](=O)[O-])cccc2c1O` low class

Into which category would you place `O=C(NCc1ccc(Cl)cc1)c1cnc2c(F)cc(S(=O)(=O)NCCNc3ccc([N+](=O)[O-])cn3)cc2c1O` ? middle class

Field: class (IC50) — entry: `CSc1cccc2c(=O)c(C(=O)NCc3ccc(Cl)cc3)c[nH]c12` low class

Bin this entry: `NC(=O)c1cc(F)c2ncc(C(=O)NCc3ccc(Cl)cc3)c(O)c2c1` high class

Form field 'band' for `O=C(NCc1ccc(Cl)cc1)c1cnc2c(F)cc(C#Cc3ccccn3)cc2c1O` high class

Lab log: O=C(NCc1ccc(Cl)cc1)c1cnc2c(F)cc(S(=O)(=O)NCc3ccccn3)cc2c1O [Example 216] — assign IC50 category middle class

The entry to classify is `O=C(NCc1ccc(Cl)cc1)c1cnc2ccc(COCCO)cc2c1O` ; which class holds it? low class

Any idea which band NCCCCC(N)C(=O)OCCCc1cc(F)c2ncc(C(=O)NCc3ccc(Cl)cc3)c(O)c2c1 (centres unmarked) [Example 156, trifluoroacetic acid salt] is in? middle class

Hi, small favor: classify `O=COCC#Cc1cc(F)c2ncc(C(=O)NCc3ccc(Cl)cc3)c(O)c2c1` by its IC50 when you get a moment. low class

Into which bin does this compound go? `O=C(O)CCCCCCCCCCNS(=O)(=O)c1cc(F)c2ncc(C(=O)NCc3ccc(Cl)cc3)c(O)c2c1` middle class

Bin this entry: `CC(C)(C)OC(=O)CNS(=O)(=O)c1cc(F)c2ncc(C(=O)NCc3ccc(Cl)cc3)c(O)c2c1` middle class

Would you mind sorting `CS(=O)(=O)OCCCc1cc(F)c2ncc(C(=O)NCc3ccc(Cl)cc3)c(O)c2c1` into the appropriate category? low class

Sort into band: `Cc1ccc(CNS(=O)(=O)c2cc(F)c3ncc(C(=O)NCc4ccc(Cl)cc4)c(O)c3c2)cc1C` middle class

For the record `O=C(NCc1ccc(Cl)cc1)c1cnc2c(F)cc(S(=O)(=O)NCCc3cccs3)cc2c1O` , report the class its IC50 corresponds to. middle class

Exercise: read the entry `O=C(NCc1ccc(Cl)cc1)c1cnc2ccc(-c3cccs3)cc2c1O` and state which class it falls under. low class

Which bin, given its IC50, does `CC(C)(O)CCc1cc(F)c2ncc(C(=O)NCc3ccc(Cl)cc3)c(O)c2c1` occupy? middle class

Exam item: assign `O=C(NCc1ccc(Cl)cc1)c1cnc2ccc(CCCO)cc2c1O` to the correct category. low class

Field: class (IC50) — entry: `O=C(NCc1ccc(Cl)cc1)c1cnc2c(F)cc(S(=O)(=O)NCCNc3cccc4ccccc34)cc2c1O` low class

Textbook exercise: identify the category of the compound given here, `O=C(NCCc1ccc(O)cc1)c1cc(F)c2ncc(C(=O)NCc3ccc(Cl)cc3)c(O)c2c1` , according to its measured value. high class

The entry to classify is `CN(CCS(=O)(=O)O)C(=O)CCCCCCC(=O)OCC#Cc1ccc2ncc(C(=O)NCc3ccc(Cl)cc3)c(O)c2c1` ; which class holds it? middle class
